This collection of values is drawn from ChEMBL document CHEMBL4024774.

target under test: Sodium-dependent dopamine transporter (Homo sapiens, UniProt Q01959)
Sequence (Q01959 whole entry): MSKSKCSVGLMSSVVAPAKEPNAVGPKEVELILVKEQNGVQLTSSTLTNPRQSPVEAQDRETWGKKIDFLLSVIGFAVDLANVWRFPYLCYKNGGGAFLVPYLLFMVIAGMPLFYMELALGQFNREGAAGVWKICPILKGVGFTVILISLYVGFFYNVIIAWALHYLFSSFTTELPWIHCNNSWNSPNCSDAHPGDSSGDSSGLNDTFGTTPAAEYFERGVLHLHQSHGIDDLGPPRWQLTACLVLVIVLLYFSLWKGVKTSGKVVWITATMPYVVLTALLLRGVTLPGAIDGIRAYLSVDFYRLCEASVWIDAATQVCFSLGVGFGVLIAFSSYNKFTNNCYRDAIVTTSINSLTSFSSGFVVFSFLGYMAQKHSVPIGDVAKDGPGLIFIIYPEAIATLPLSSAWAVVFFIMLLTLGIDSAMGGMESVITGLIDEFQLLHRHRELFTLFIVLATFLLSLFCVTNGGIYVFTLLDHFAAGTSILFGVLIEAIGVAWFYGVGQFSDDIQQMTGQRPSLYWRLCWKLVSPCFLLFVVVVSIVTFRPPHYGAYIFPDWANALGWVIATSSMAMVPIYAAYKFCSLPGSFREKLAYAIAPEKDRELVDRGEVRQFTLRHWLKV
measurement description: Inhibition of [3H]DA uptake at wild type human DAT expressed in African green monkey COS7 cells after 5 mins by beta scintillation counting method
Type: cell-based
measurement kind: log10 of Ki (log10 of the value in nM)
Parameter value (number): base-10 log of Ki in nM.

> print(dat)
                                   molecule  numeric.readout
1  CN1C2CCC1[C@@H](c1cc(-c3ccccc3)no1)[C@@H](OC(c1ccc(F)cc1)c1ccc(F)cc1)C2 (mixture of isomers)             3.11
2  CC(C)[C@@H](N)CN1C2CCC1CC(OC(c1ccc(F)cc1)c1ccc(F)cc1)C2 (stereo not given in full)             2.12
3  Cc1ccc(C2CC3CCC(C2c2cc(-c4ccc(Cl)cc4)no2)N3C)cc1 (stereo not given)             0.99

For the molecule shown here, Cc1ccc(-c2cc(C3C(c4ccc(Cl)cc4)CC4CCC3N4C)on2)cc1 (stereo not given) , give the reported log10 of Ki. 1.20

Again, but for CCCCN1C2CCC1CC(NC(c1ccc(F)cc1)c1ccc(F)cc1)C2 (stereo not given) 1.79
